Data origin: ChEMBL document CHEMBL1828590

# SYSTEM: Cytochrome P450 2D6 (Homo sapiens, UniProt P10635)
# Sequence (P10635 whole entry): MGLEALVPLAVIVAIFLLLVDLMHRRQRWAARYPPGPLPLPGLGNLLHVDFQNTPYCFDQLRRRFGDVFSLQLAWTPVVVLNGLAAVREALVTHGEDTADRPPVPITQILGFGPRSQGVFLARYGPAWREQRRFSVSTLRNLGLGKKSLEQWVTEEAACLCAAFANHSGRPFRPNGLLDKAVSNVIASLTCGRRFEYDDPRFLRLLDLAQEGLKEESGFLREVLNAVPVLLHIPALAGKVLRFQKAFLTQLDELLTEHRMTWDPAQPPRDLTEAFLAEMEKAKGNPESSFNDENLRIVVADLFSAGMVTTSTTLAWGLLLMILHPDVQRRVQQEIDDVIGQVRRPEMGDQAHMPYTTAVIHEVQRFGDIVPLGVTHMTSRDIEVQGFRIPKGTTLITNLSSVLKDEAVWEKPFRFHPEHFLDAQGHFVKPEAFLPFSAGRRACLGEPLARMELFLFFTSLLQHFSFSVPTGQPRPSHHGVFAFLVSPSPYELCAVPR
# PROTOCOL_SUMMARY: Inhibition of recombinant CYP2D6 after 30 mins by fluorescence assay
# Assay type: ADME
pIC50: −log10 of the molar value.
Some molecules, each annotated with its measured pIC50.

CN(C)CC(C)(C)Cn1c(CC(C)(C)C)nc2cc(/C=C/C(=O)NO)ccc21
< 5.00
CCCCc1nc2cc(/C=C/C(=O)NO)ccc2n1CCN(CC)CC.Cl.Cl
< 5.00

Could you now consider this next molecule?
Param item = CCCCCCc1nc2cc(/C=C/C(=O)NO)ccc2n1CCN(C)C ; retrieve measured pIC50.
5.50

* * *

# PROTOCOL_SUMMARY: Apparent oral clearance in Beagle dog at 10 mg/kg, po
# Assay type: ADME, organism-based, Canis lupus familiaris
# Set-up: dose 10 mg/kg, route oral
# CONDITION_NOTES: in vivo
MEASUREMENT_KIND: CL/F (mL/min/kg)
# value in mL/min/kg; strip the unit string

Param item = CCCCc1nc2cc(/C=C/C(=O)NO)ccc2n1CCN(CC)CC.Cl.Cl ; retrieve measured CL/F.
38.2

* * *

# PROTOCOL_SUMMARY: Solubility of the compound in phosphate buffer at pH 4.5
# Format: physicochemical
MEASUREMENT_KIND: solubility

Param item = CCCCc1nc2cc(/C=C/C(=O)NO)ccc2n1CCN(CC)CC.Cl.Cl ; retrieve measured solubility.
> 50 mg/mL

* * *

# PROTOCOL_SUMMARY: Oral bioavailability in nude BALB/c mouse at 50 mg/kg
# Format: ADME, organism-based
# CONDITION_NOTES: in vivo
MEASUREMENT_KIND: bioavailability (%)
# value in %; strip the unit string

Study these solved cases before continuing.
CCCCc1nc2cc(/C=C/C(=O)NO)ccc2n1CCN(CC)CC.Cl.Cl
34
CN(C)CC(C)(C)Cn1c(CC(C)(C)C)nc2cc(/C=C/C(=O)NO)ccc21
51
O=C(/C=C/c1cccc(S(=O)(=O)Nc2ccccc2)c1)NO [BELINOSTAT]
6.7

Param item = Cc1[nH]c2ccccc2c1CCNCc1ccc(/C=C/C(=O)NO)cc1 [PANOBINOSTAT] ; retrieve measured bioavailability.
4.6

Param item = O=C(CCCCCCC(=O)Nc1ccccc1)NO [VORINOSTAT] ; retrieve measured bioavailability.
8.3

* * *

# PROTOCOL_SUMMARY: Apparent oral clearance in nude BALB/c mouse at 50 mg/kg, po
# Assay type: ADME, organism-based
# Design: dose 50 mg/kg, route oral
# CONDITION_NOTES: in vivo
MEASUREMENT_KIND: CL/F (mL/min/kg)
# value in mL/min/kg; strip the unit string

Param item = CCCCc1nc2cc(/C=C/C(=O)NO)ccc2n1CCN(CC)CC.Cl.Cl ; retrieve measured CL/F.
453

* * *

# Test system: HCT-116
# PROTOCOL_SUMMARY: Antitumor activity against human HCT116 cells xenografted in athymic nu/nu Harlan mouse assessed as tumor growth inhibition at 100 mg/kg, po qd for 21 days measured on day 22
# Assay type: functional
# CONDITION_NOTES: read-out: TGI
MEASUREMENT_KIND: inhibition in vivo at 100 mg/kg

CCCCc1nc2cc(/C=C/C(=O)NO)ccc2n1CCNC(C)C.Cl.Cl
60%
CCCCCCc1nc2cc(/C=C/C(=O)NO)ccc2n1CCNCC.Cl.Cl
-7%
CN(C)CC(C)(C)Cn1c(CC(C)(C)C)nc2cc(/C=C/C(=O)NO)ccc21.Cl.Cl
85%

Could you now consider this next molecule?
Param item = O=C(/C=C/c1cccc(S(=O)(=O)Nc2ccccc2)c1)NO ; retrieve measured inhibition in vivo at 100 mg/kg.
26%
